Assay: Photostability at high dilution in ethanol solution under Hg lamp with Pyrex filter
Type: physicochemical
result-type: photostability

In [3]: df
Out[3]:
                                        smi           observed_result
0  COc1cc2c(cc1OC)C(C)(C)C/C2=C(/C#N)C(=O)OCCC[Si](C)(C)O[Si](C)(C)C  excellent photostability
1  COc1cc2c(cc1OC)C(C)(C)C/C2=C(/C#N)C(=O)OCCCC[Si](C)(O[Si](C)(C)C)O[Si](C)(C)C  excellent photostability

====

Experiment: Solubility in cosmetic solvents (CÉTIOL LC, CRODAMOL DA)
Settings: solvent CÉTIOL LC (Coco-caprylate/caprate)
Quick reference: Solubility in CÉTIOL LC of the listed items.
result-type: Solubility in CÉTIOL LC (%)

                                   molecule  observed_result
0  C#CCNC(=O)/C(C#N)=C1\CC(C)(C)c2cc(OC)c(OC)cc21 [Example 8b, reference compound]             0.04
1  CCOC(=O)/C(C#N)=C1\CC(C)(C)c2cc(OC)c(OC)cc21 [Example 1, reference compound]             0.35
2  CCOC(=O)/C(C#N)=C1\CC(C)(C)c2cc(OC)ccc21 [drawing 31, reference compound]             0.10
3  CCOC(=O)/C(C#N)=C1\CC(C)(C)c2cc(OC)ccc21 [drawing 32, reference compound]             0.09
